Where these numbers come from: the supplement of paper PMC6555819

- Tested on: LXRa:RXRa (NR concentration 270 nM, RXRa partner concentration 90 nM)
- TEST: PBM binding z-score (relative to random genomic background probes); higher = stronger binding; sequences stand for … in GC…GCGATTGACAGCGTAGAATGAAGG
ASSAY METRIC: PBM binding z-score
# output: bare number, no unit

Worked cases, answers included:
INSERT INTO results (sequence_string, target_desc, assay_metric, number) VALUES
  ('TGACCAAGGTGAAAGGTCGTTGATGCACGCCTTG', 'LXRa:RXRa (NR concentration 270 nM, RXRa partner concentration 90 nM)', 'PBM binding z-score', 2.98),
  ('ACTATTAGTTGACTTTGGGCAACCGATACGACGC', 'LXRa:RXRa (NR concentration 270 nM, RXRa partner concentration 90 nM)', 'PBM binding z-score', 0.0714),
  ('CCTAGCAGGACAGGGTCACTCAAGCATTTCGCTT', 'LXRa:RXRa (NR concentration 270 nM, RXRa partner concentration 90 nM)', 'PBM binding z-score', 1.99);

Please fill in: PBM binding z-score reported for GGACCGAGGGCAAAGTTGATAGCATCTGTCGACG = 0.801

Please fill in: PBM binding z-score reported for GCGACTGCGGCAAAGCAGGTTACCATAAGGTTGG = -0.494

Please fill in: PBM binding z-score reported for AGTCAAAGTTCAGGACGAGCTAACGTAAAGCACG = 3.76

Please fill in: PBM binding z-score reported for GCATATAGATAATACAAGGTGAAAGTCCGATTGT = 0.0374

Please fill in: PBM binding z-score reported for TTACCAAGGAGAAGGTCGTTGATCCCTCTGTAGA = 1.19

Please fill in: PBM binding z-score reported for CCTCGGAGGACCGAAGGTCAGAGCTGTCCGCTTT = 1.42

Please fill in: PBM binding z-score reported for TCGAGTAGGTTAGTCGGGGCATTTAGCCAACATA = 0.346

Please fill in: PBM binding z-score reported for TCTAGCAGGCCAGAGGGTCACTCTAGAGGTACGG = 0.863

Please fill in: PBM binding z-score reported for ATCGAAAGGTCGAGGTGAGTCTAGAGAAAGGGAA = 3.71
